molecular target: CTD of SARS‐CoV‐2 N protein (Severe acute respiratory syndrome coronavirus 2)
quantity_measured: Kd
Please provide the amount together with its unit, number first.

### Prompt Reported Kd, compound Nc1ncnc2c1ncn2[C@@H]1O[C@H](COP(=O)(O)OP(=O)(O)OP(=O)(O)O)[C@@H](O)[C@H]1O [ATP] : ____
### Response 1.49 mM
